experiment: yeast display, Sf9 membrane polyspecificity reagent, FACS + sequencing; frameworks hold sequencing errors
MEASURED ATTRIBUTE: polyreactivity (PSR sort gate)

# count of solved cases: 6
1. QVQLVESGGGLVQAGGSLRLSCAASGYIFTDKVMGWYIQAPGKERELVAAITYSAASTYYADSVKGRFTISRDNAKNTVYLQMNSLKPEDTAVYYCATEYYIGVNYRGDYWGQGTQVTVSS low polyreactivity
2. QVQLVESGGGLVQAGGRLRLSCAASGFTFDYNAMGWYIQAPGKEREFVASISVSGGSTYYADSVKGRFTISRDNAKNTVYLQMNSLKPEDTAVYYCAAELTGDGTLGYDFWGQGTQVTVSS low polyreactivity
3. QVQLVESGGGLVQAGRSLRLSCASSGSPFDPYGKGRYRQAPGKEWEWVAAITASGRTNYADSVKGRFTISRDTAKNTVYLQMNSLKPEDTAFYYCATRKELYFYRGYEYWGQGTQVTVSS low polyreactivity
4. QVQLEESGGGLVQAGGSLRLSCAASGFIFYQYAMGSYRQAPGKVRELVAAISWNGGRTYYADSVKGRFTISRDNAKNTVYLQMNSLKPEDTAVYYCAAPVLTSDYTLDSYYWGQGTQVTVSS high polyreactivity
5. QVQLVESGGGLVQPGGSLSLSCAASGLTFYSYAMGWSRQAPGKERELVAAITSSGSITYYADSVKGRFTISRDNAKNTVYLQMNSLTPEDTAVYYCAARPYRVRGQRFEGNYCGQGTQVTVSS high polyreactivity
6. QVQLVESGGGLVQAGGSLRLSCAASGFIFRYYAMGSYRQAPGKERELVAAITSGGASTYYADSVKGRFTISRDNAMNTVYLQMNSLKPDDTAVYYCAADTSSYSEYEYWGQGTQVTVSS low polyreactivity

Input `HVQLVESGGGLVQAGGSLRLSCAASGSIYGGNTMGWYRQAPGKERELVAAISRSGGSTYYADSVKGRFTISRDNAKNTVYLQMNSLKREDTAVYYCKRKQAGHGQGYDYWGQGTQVTVSS` . Output polyreactivity (PSR sort gate): high polyreactivity

Input `QVQLVESGGGLVQAGGSLRLSCAASGFTFASNDMGWYRPAPGKERELVAAITKGGGRTYYADSVKGRFTISRDNAKNTVYLLMNSLKPEDTAVYYCAASQLIKYDYWGQGTEVTVSS` . Output polyreactivity (PSR sort gate): low polyreactivity

Input `QVQLQESGGGLVQAGGSQRLTCAASVYIFYFQYMGWYRQAPGKEREFVAAMSDGANTNYADSVKGRFTISRDNAKNTESLQMNSLKPEDTAGYYCAVYADENYYYIYGGQGTQVTVSS` . Output polyreactivity (PSR sort gate): low polyreactivity

Input `QVQLVESGGGLVQAGGSLRLSCAASGSIFRKNAMGWYRQAPGKERELVAAISSSGGRTYYADSVKGRFTISRDNAKNTVYLQMNSLKPEDTAVYYCNTGPGQSFRYNYWGQGTQVTVSS` . Output polyreactivity (PSR sort gate): high polyreactivity

Input `QVQLVESGGGLVQAGGSLRLSCAASGRIFGVNAMGWYTQAPGKERELVAAIRYTGGSTYYADSVKGRFTISRDNAKNTVYLQMNSLKPEDTAVYYCAKARYTYSWSFGYWGQGTQVTVSS` . Output polyreactivity (PSR sort gate): low polyreactivity

Input `QVQLVESGGGLVQAGGRLRLSCAASVRILGKYAMGWYRQAPGKERELVAAIRLRGGSTYYADSVKGRFTISRDNAKNTVYLQMNSLKPEDTAVYYCAARYWDRSQAYYYWGQGTQVTVSS` . Output polyreactivity (PSR sort gate): high polyreactivity

Input `QVQLVESGGGLVQAGGSLRLSCAASGRTFSGNAMGWYRQAPGKERELVAAITSGSSTYYADSVKGRFTISRDNAKNTVYLQMNSLKPEDTAVYYCAARSVYGSSFLSYGYWGQGTQVTVSS` . Output polyreactivity (PSR sort gate): high polyreactivity

Input `QVQLVESGGGLVQAGGSLRLSCAASGRIIGSYAMGWYRQAPGKERELVAAISRGGITNYADSVKGRFTIARDNAKNTVYLQMNSLKPEDTAVYYCAVGIRYRGRQGYYGYYTYDYWGQGTQVTVSS` . Output polyreactivity (PSR sort gate): high polyreactivity

Input `QVQLVESGGGLVQAGGSLRLICAASGFTFASNAMGWYRQATGKERELVAAITTSGGSTYYADSVKGRFTISRDNAKNTVYLQMNSLKPEDTSVYYCADRATSRRPYSYGSWGQGTQVTVSS` . Output polyreactivity (PSR sort gate): high polyreactivity

Input `QVQLVESGGGLVQAGGSLRLSCAASGRTLSLYAMGWYRQAPGKEMELVANISNSGGSTDYADSVKGRFTISRDNAKNTVYLQMNSLKPEDTAVYYCAADANSWFTSYQVYGSEFDYWGQGTQVTVSS` . Output polyreactivity (PSR sort gate): low polyreactivity

Input `QVQLVESGGGLVQAGGSLRFSCAASGFIFYRNTMGWYRQAPGKEREFVAAIRWRGGSTYYADSVKGRFTISRDNAKNTVYLQMNSLKPEDTAVYYCAADTRPGYSGFVYWGQGTQVTVSS` . Output polyreactivity (PSR sort gate): high polyreactivity

Input `QVQIVESGRGLVQAGGSLRLSCASSGFTFVSYAMGWYRQAPGKERELDASISKRGGTTYYADSVKGRFTISRDNAKNTVYLQMNSLKPEDTAVYYCYARDTRRYVTYDSGYDYWGQGTQVTVSS` . Output polyreactivity (PSR sort gate): high polyreactivity

Input `QVQLVESGGGLVQAGGSLRLSCAASGSIFFVYDMGWYRQAPGKERELVAAITWSGGRTTYADSVKGRFTISRDNAKNTVYLQMNSLKPEDTAVYYCAKAWPDHWYSRYDYWGQGTQVTVSS` . Output polyreactivity (PSR sort gate): low polyreactivity

Input `QVQLVESGGGLVQAGGSLRLSCAASGFIISDYAMGWYRQAPGKERELVAVITWRSGSTYYADSVKGRFTISRDNAKNTVYFQMHSLKPVDTAVYYCAARYYRNYSQGRRLGYNYWGQGTQVTVSS` . Output polyreactivity (PSR sort gate): high polyreactivity

Input `QVQLVESGGGLVQAGGSLRLSCAASGYIFSTYDMGWYRQAPGKERELVATISSSGGSTYYADSVKGRFTISRDIAKNTVYLQMNSLKPEDTAVYYCAADLYLYQYRYEYDYWGQGTQVTVSS` . Output polyreactivity (PSR sort gate): high polyreactivity
